Where these numbers come from: ChEMBL document CHEMBL1201862

# Test system: MDA-N
# assay: NCI tumour cell line growth inhibition, 48 h
Active and inactive are the calls of the source. Rule as the data show it: active = GI50 up to about 1.1 µM and inactive = higher.
Outcome field: choose from yes for active, no for inactive

Worked examples, 2 compounds total:
                        compound  assay_system  qualitative_label
0            Oc1cccc2c(Cl)ccnc12         MDA-N                 no
1  O=C(O)CCc1ccc(-c2ccccc2)[nH]1         MDA-N                 no

IN: Tell me the assay call for CCP(=O)(CC)C(Cl)(Cl)C(=O)NC please.
OUT: no

IN: What did the test return for Oc1cc(-c2cccc3ccccc23)nc2ncccc12 ?
OUT: yes

IN: Hi team, can someone confirm the assay call for Cc1nc2cc([N+](=O)[O-])ccc2c(NCCCN(C)C)c1C ?
OUT: no

IN: For CCOC(=O)CCc1cn2cc(Br)nc(OC)c2n1 , which call appears in the assay record?
OUT: no

IN: Which result was noted for this compound in the test: O=[N+]([O-])c1cccc2nc3ccccc3c(NCCCN3CCCCC3)c12
OUT: yes

IN: For this compound, state the assay outcome: CCC(O)(Cc1ccc(OC)cc1)c1ccc(OC)cc1 (configuration not stated)
OUT: no

---

# System: PC-3
# assay: NCI tumour cell line growth inhibition, 48 h
Calls of active or inactive are those of the source. No stated cut-off is given here; in the data, active = GI50 up to about 1.1 µM and inactive = higher.
readout: GI50

For orientation, consider the following solved cases.
compound	GI50
CC1=C(C(=O)OCCO[N+](=O)[O-])C(c2ccccc2C(F)(F)F)C(C(=O)OC(C)C)=C(C)N1 (stereo not given)	3.36 µM (inactive)
Cc1c2c(C#N)nccc2c(C)c2c1c1ccccc1n2Cc1ccccc1	> 100 µM (inactive)
Cc1nc2c(=O)n(C)ncc2[nH]1	> 100 µM (inactive)
N=c1oc2ccccc2cc1-c1nc2ccccc2c(=O)[nH]1	> 100 µM (inactive)
Cc1ccc2nc(C(=O)O)c(=O)[nH]c2c1	> 100 µM (inactive)
O=C(CCc1ccc(O)c(O)c1)NCCc1cc(O)cc(OCc2ccccc2)c1	31.9 µM (inactive)
Brc1ccc(-c2cn3ccncc3n2)cc1	> 100 µM (inactive)
CCOC(=O)c1c(Br)c(-c2ccc(Br)cc2)c(Br)n1C	19.4 µM (inactive)

Lab note: measured GI50 of COc1cc(/C=C/C(=N\NC(N)=S)c2sc(NNC(C)=O)nc2C)ccc1O was > 100 µM (inactive)

Documented GI50 of COC1/C=C/OC2(C)Oc3c(C)c(O)c4c(c3C2=O)C(=O)C=C(NC(=O)/C(C)=C\C=C\C(C)C(OC=O)C(C)C(O)C(C)C(OC(C)=O)C1C)C4=O (stereo not given) : 10.3 µM (inactive)

---

Listing of recorded GI50 by entry.
# System: IGROV-1
# assay: NCI tumour cell line growth inhibition, 48 h
Calls of active or inactive are those of the source. Rule as the data show it: active = GI50 up to about 1.1 µM and inactive = higher.

Example entries begin here.
In [3]: df
Out[3]:
                                   compound  readout         result_value
0                  CC(=O)SC(SC(C)=O)SC(C)=O     GI50  > 100 µM (inactive)
1           CCOC(=O)c1cc(=O)c2ccnc3c2n1CCS3     GI50   40.6 µM (inactive)
2  O=c1c(C(c2ccc3ccccc3c2)c2c(O)oc3cc(O)ccc3c2=O)c(O)oc2cc(O)ccc12     GI50  > 100 µM (inactive)
3  CCCCCCCCCCOc1ccc(/N=N/c2nnc(-c3ccc(OCCCCC)cc3)s2)cc1     GI50  > 100 µM (inactive)

Could you now look at the following compound, please?
Given item c1c2c(cc3c1OCO3)-c1cc3ccc4c(c3c[n+]1CC2)OCO4 [COPTISINE CHLORIDE] , the value recorded as its GI50 is 2.04 µM (inactive)
